System: E. coli cells expressing an HPPD polypeptide
method-description: Brown color bioassay in liquid culture, residual brown color formation (BCF), OD440 after 96 hours
Type: cell-based
run-conditions: brown color formation with Cmpd. 1 (1000 μM) relative to without, after 96 hours
Protocol: In an additional experiment, mutant HPPD polypeptides were analyzed using the principle of a colorimetric brown color assay (as, for example, described in U.S. Pat. No. 6,768,044). Bacterial cells expressing the HPPD polypeptides according to this invention were assayed in 96 well plate format (Nunc® 96 DeepWell™ plate, Sigma-Aldrich, St. Louis, USA) for HPPD polypeptides with improved HPPD inhibitor herbicide tolerance. […]
metric: Residual BCF OD440nm [%] (%)
Give bare numbers, in %.

Problem: Fill in the blank: the reported Residual BCF OD440nm [%] of 89 (protein, mutant HPPD polypeptide) MADLYENPMGLMGFEFIEFASPTPGTLEPIFEIMGFTKVATHRSKNVHLYRQGEINLILNNEPNSIASYFAAEHGPSVCGMAFRVKDSQKAYNRALELGAQPIHIDTGPMELNLPAIKGIGGAPLYLIDRFGEGSSIYDIDFVYLEGVERNPVGAGLKVIDHLTHNVYRGRMVYWANFYEKLFNFREARYFDIKGEYTGLTSKAMSAPDGMIRIPLNEESSKGAGQIEEFLMQFNGEGIQHVAFLTDDLVKTWDALKKIGMRFMTAPGDEYYEMLEGRLPDHGEPVDQLQARGILLDGSSVEGDKRLLLQIFSETLMGPVFFEFIQRKGDDGFGPDSFKVLFESKERDQVRRGVLTAD is ____.
Result: 67
